System: BCAT2 (Homo sapiens, UniProt O15382)
Sequence (O15382 28-392): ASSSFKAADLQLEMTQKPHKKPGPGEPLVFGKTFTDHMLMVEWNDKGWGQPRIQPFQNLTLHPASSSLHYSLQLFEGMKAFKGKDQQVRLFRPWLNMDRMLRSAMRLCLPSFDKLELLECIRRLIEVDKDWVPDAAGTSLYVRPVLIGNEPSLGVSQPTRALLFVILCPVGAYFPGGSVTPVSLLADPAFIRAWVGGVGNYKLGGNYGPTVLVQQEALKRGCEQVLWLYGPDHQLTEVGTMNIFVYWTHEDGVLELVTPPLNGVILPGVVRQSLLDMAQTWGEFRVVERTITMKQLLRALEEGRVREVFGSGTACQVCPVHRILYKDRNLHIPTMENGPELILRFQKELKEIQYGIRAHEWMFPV
Method Summary: BCAT2 in vitro enzyme inhibition assay (resazurin/diaphorase-coupled fluorescence)
Assay type: biochemical
Condition Notes: average where tested multiple times
Experimental: BCAT2 In Vitro Enzyme Inhibition Assay 1.67× hBCAT2 Enzyme Mix: 0.33 μg/mL hBCAT2, 1× Buffer 2.5× Substrate Mix: 460 μM L-leucine, 420 μM α-KetoGlutarate, 10 U/mL glutamate dehydrogenase, 10 mM NAD, 30 μg/mL diaphorase, 20 μm Resazurin BCAT2 enzyme stock solution was diluted to prepare a 1.67× hBCAT2 Enzyme Mix. […] Reactions were quenched after one hour by the addition of 25 μL of 6% SDS and reaction progress was measured via fluorescence read (Ex 540/Em 590). […]
pIC50: −log10 of the molar value.
Observable: pIC50

Reference set, count: 8
[
  {
    "Molecule": "O=C(N[C@H]1CCC[C@@H](n2c(-c3ccccn3)nc3cnc(-c4nc[nH]n4)cc32)C1)c1ncc(Cl)s1",
    "pIC50": "≥ 7.00"
  },
  {
    "Molecule": "CO[C@@H]1C[C@@H](NC(=O)c2ncc(Cl)s2)C[C@@H](n2c(-c3ccccc3F)nc3cnc(-n4cncn4)cc32)C1 (stereo in doubt)",
    "pIC50": "≥ 7.00"
  },
  {
    "Molecule": "CC(C)Cc1nc2cnc(-n3nccn3)cc2n1[C@H]1C[C@H](O)C[C@@H](NC(=O)c2ccc(Cl)s2)C1 (single isomer, unassigned)",
    "pIC50": "≥ 7.00"
  },
  {
    "Molecule": "O=C(NC1COCC(n2c(-c3ncccc3F)nc3cnc(-n4ccnn4)cc32)C1)c1ncc(C(F)F)s1 (single isomer, unassigned) [Example 144]",
    "pIC50": "6.00 to 6.30"
  },
  {
    "Molecule": "O=C(N[C@H]1CCC[C@@H](n2c(-c3ccccc3F)nc3cnc(-c4cccnc4)cc32)C1)c1ncc(Cl)s1",
    "pIC50": "≥ 7.00"
  },
  {
    "Molecule": "O=C(N[C@H]1CCC[C@@H](n2c(-c3ccccn3)nc3cnc(-n4cncn4)cc32)C1)c1ccc(Br)s1",
    "pIC50": "≥ 7.00"
  },
  {
    "Molecule": "CC(C)Cc1nc2cnc(-c3ccn(C(F)F)n3)cc2n1[C@@H]1CCC[C@H](NC(=O)c2ncc(Cl)s2)[C@H]1O",
    "pIC50": "≥ 7.00"
  },
  {
    "Molecule": "COC[C@H]1CCCN1c1cc2c(cn1)nc(-c1ccccc1F)n2[C@@H]1CCC[C@H](NC(=O)c2ncc(Cl)s2)C1",
    "pIC50": "< 6.00"
  }
]

Lab note: need pIC50 with BCAT2 (Homo sapiens, UniProt O15382) for entry N#C[C@H]1[C@@H](NC(=O)c2ncc(Cl)s2)CCC[C@H]1n1c(-c2ccccc2F)nc2cnc(-c3nc[nH]n3)cc21 , please look it up.
< 6.00

Lab note: need pIC50 with BCAT2 (Homo sapiens, UniProt O15382) for entry COCc1nc2cnc(-c3nc[nH]n3)cc2n1[C@@H]1CCC[C@H](NC(=O)c2ncc(Cl)s2)C1 , please look it up.
6.30 to 7.00

Lab note: need pIC50 with BCAT2 (Homo sapiens, UniProt O15382) for entry O=C(N[C@H]1CCC[C@@H](n2c(-c3ccccn3)nc3cnc(-n4nccn4)cc32)C1)c1ccc(Br)s1 , please look it up.
≥ 7.00

Lab note: need pIC50 with BCAT2 (Homo sapiens, UniProt O15382) for entry CC(=O)N1C[C@@H](NC(=O)c2ncc(C(F)F)s2)C[C@@H](n2c(-c3ccccc3F)nc3cnc(-c4ncco4)cc32)C1 , please look it up.
6.30 to 7.00

Lab note: need pIC50 with BCAT2 (Homo sapiens, UniProt O15382) for entry COC(=O)N1C[C@@H](NC(=O)c2ccc(Cl)s2)C[C@@H](n2c(-c3ccccc3F)nc3cnc(-c4nc[nH]n4)cc32)C1 , please look it up.
≥ 7.00
